ASSAY METHOD TEXT: Mouse pharmacokinetics, oral single and repeat dose
Assay type: in vivo
SETUP CONDITIONS: mouse, plasma; female C57 mice, 15 mg/kg PO NMP
READOUT LABEL: Tmax (h)
The figure you give is taken to be in h; do not add the unit.

Task item: Provide measured Tmax value, entry: Cc1c(C#Cc2cccc3nc([C@H](C)NC(=O)c4c(N)nn5cccnc45)n(-c4ccccc4)c(=O)c23)cnn1C
Reply: 1

====

pIC50: −log10 of the molar value.
Assignment: determine reported pIC50 for the given molecules.

Task item: Answer briefly: pIC50 recorded on PI3K γ (Homo sapiens (Human)) for C[C@H](NC(=O)c1c(N)nn2cccnc12)c1cc2cccc(C#Cc3ccc(=O)n(C)c3)c2c(=O)n1-c1ccccc1 [Compound 20]
Sequence (P48736 whole entry): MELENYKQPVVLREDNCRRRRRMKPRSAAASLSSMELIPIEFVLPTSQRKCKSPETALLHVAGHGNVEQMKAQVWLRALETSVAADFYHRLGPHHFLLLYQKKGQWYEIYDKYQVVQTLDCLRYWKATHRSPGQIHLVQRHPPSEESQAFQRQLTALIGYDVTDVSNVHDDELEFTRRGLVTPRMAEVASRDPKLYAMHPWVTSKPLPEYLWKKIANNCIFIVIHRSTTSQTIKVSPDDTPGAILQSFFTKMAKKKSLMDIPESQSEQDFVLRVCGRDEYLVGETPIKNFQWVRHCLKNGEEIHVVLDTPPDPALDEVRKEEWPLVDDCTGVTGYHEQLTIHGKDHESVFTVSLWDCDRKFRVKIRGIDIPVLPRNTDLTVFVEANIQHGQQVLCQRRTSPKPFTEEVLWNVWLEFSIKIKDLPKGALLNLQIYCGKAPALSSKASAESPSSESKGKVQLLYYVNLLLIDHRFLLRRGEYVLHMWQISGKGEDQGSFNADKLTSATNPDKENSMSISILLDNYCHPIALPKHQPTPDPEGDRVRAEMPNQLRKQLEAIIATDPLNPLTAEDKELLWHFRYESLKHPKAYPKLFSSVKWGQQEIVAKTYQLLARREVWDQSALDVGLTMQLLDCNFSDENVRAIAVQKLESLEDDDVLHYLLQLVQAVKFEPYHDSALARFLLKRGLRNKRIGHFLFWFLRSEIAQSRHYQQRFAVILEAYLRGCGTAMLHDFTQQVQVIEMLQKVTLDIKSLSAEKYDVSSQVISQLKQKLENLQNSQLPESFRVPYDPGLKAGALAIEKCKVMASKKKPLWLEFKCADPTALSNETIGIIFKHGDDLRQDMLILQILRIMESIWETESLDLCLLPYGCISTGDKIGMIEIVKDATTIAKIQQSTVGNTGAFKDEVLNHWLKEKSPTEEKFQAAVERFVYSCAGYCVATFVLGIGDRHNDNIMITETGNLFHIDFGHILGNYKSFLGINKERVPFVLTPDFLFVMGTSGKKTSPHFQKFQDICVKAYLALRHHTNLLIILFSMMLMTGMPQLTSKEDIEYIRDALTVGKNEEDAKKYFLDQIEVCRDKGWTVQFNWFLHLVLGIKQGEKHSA
Reply: 7.00 to 9.00

Task item: Answer briefly: pIC50 recorded on PI3K γ (Homo sapiens (Human)) for Cc1ncsc1C#Cc1cccc2cc([C@H](C)NC(=O)c3c(N)nn4cccnc34)n(-c3ccccc3)c(=O)c12 [Compound 75]
Reply: 5.30 to 6.00

Task item: Answer briefly: pIC50 recorded on PI3K γ (Homo sapiens (Human)) for C[C@H](NC(=O)c1c(N)nn2cccnc12)c1cc2cccc(C#Cc3cnn(C)c3)c2c(=O)n1-c1ccc(F)c(F)c1 [Compound 97]
Reply: 6.30 to 7.00

Task item: Answer briefly: pIC50 recorded on PI3K γ (Homo sapiens (Human)) for C[C@H](NC(=O)c1c(N)nn2cccnc12)c1cc2cccc(C#CC3CNC3)c2c(=O)n1-c1ccccc1 [Compound 74]
Reply: 6.00 to 6.30

====

ASSAY METHOD TEXT: Mouse pharmacokinetics, oral single and repeat dose
Type: in vivo
SETUP CONDITIONS: mouse, plasma; female C57 mice, 2 mg/kg PO NMP
READOUT LABEL: Cmax (ng/mL)
The figure you give is taken to be in ng/mL; do not add the unit.

Task item: Provide measured Cmax value, entry: Cc1c(C#Cc2cccc3nc([C@H](C)NC(=O)c4c(N)nn5cccnc45)n(-c4ccccc4)c(=O)c23)cnn1C [Compound 88]
Reply: 654

====

ASSAYED SYSTEM: PI3K-γ in RAW264.7 macrophages (Mus musculus (Mouse), UniProt Q9JHG7)
Sequence (Q9JHG7 whole entry): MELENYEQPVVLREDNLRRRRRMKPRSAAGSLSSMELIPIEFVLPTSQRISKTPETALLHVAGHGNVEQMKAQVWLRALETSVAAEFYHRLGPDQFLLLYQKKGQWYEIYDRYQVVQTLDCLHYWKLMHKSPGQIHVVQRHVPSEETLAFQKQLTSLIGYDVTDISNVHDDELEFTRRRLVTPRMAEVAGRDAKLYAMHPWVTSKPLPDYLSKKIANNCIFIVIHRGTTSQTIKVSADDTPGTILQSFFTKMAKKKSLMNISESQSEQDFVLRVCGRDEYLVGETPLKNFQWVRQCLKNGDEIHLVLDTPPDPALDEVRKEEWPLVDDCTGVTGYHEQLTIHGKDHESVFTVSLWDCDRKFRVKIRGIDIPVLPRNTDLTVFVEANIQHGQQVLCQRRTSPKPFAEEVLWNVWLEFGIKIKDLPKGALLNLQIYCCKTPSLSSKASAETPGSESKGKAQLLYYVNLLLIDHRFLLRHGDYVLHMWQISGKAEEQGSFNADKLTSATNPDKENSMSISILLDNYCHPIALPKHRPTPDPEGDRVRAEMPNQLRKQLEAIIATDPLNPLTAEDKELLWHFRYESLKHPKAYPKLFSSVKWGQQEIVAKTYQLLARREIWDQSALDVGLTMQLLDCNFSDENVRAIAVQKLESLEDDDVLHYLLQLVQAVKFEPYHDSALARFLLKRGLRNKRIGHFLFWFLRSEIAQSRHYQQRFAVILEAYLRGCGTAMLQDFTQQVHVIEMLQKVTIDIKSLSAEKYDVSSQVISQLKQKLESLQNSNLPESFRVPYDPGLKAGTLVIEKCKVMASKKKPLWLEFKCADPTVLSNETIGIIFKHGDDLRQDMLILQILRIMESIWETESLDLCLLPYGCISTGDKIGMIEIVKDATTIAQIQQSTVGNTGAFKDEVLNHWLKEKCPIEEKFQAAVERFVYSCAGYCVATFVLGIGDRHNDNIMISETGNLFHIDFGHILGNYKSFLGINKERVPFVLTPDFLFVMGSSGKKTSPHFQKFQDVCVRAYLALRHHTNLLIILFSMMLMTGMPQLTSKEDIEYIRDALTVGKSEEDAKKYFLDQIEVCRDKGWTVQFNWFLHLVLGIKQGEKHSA
ASSAY METHOD TEXT: Raw264.7 p110 γ assay (PI3K-γ selective cellular assay, C5a-stimulated phospho-AKT)
Type: cell-based
SETUP CONDITIONS: read-out: Cellular IC50 γ
READOUT LABEL: pIC50
Note on units: pIC50 is unitless, being -log10 of a concentration expressed in mol/L.

Task item: Answer briefly: pIC50 recorded on PI3K-γ in RAW264.7 macrophages (Mus musculus (Mouse), UniProt Q9JHG7) for CC(C)n1c([C@H](C)Nc2ncnc(N)c2C#N)cc2cccc(-c3ccc(=O)n(C)c3)c2c1=O [Compound AA, reference compound]
Reply: 6.38

====

READOUT LABEL: IC50

Task item: Answer briefly: IC50 recorded on UniProt:P48736 for Cc1ncccc1C#Cc1cccc2cc([C@H](C)NC(=O)c3c(N)nn4cccnc34)n(-c3ccccc3)c(=O)c12 [Compound 67]
Reply: 1000 to 5000 nM

Task item: Answer briefly: IC50 recorded on UniProt:P48736 for C[C@H](NC(=O)c1c(N)nn2cccnc12)c1cc2cccc(C#CC3CCOC3)c2c(=O)n1-c1ccccc1 (some centres unmarked) [Compound 84]
Reply: 1 to 100 nM

Task item: Answer briefly: IC50 recorded on UniProt:P48736 for C/C=C/c1cccc2cc([C@H](C)NC(=O)c3c(N)nn4cccnc34)n(-c3ccccc3)c(=O)c12 [Compound 70]
Reply: 100 to 500 nM

Task item: Answer briefly: IC50 recorded on UniProt:P48736 for C[C@H](NC(=O)c1c(N)nn2cccnc12)c1cc2cccc(C#Cc3ccccn3)c2c(=O)n1-c1ccccc1 [Compound 32]
Reply: 100 to 500 nM

Task item: Answer briefly: IC50 recorded on UniProt:P48736 for C[C@H](NC(=O)c1c(N)nn2cccnc12)c1cc2cccc(C#Cc3cnn(C)c3)c2c(=O)n1C1CCCCC1 [Compound 99]
Reply: 1000 to 5000 nM

Task item: Answer briefly: IC50 recorded on UniProt:P48736 for Cc1ncc(C#Cc2cccc3cc([C@H](C)NC(=O)c4c(N)nn5cccnc45)n(-c4ccccc4)c(=O)c23)n1C [Compound 38]
Reply: 1 to 100 nM

Task item: Answer briefly: IC50 recorded on UniProt:P48736 for C[C@H](NC(=O)c1c(N)nn2cccnc12)c1cc2cccc(C#Cc3cc[nH]c(=O)c3)c2c(=O)n1-c1ccccc1 [Compound 31]
Reply: 100 to 500 nM

Task item: Answer briefly: IC50 recorded on UniProt:P48736 for COC(C)C#Cc1cccc2cc([C@H](C)NC(=O)c3c(N)nn4cccnc34)n(-c3ccccc3)c(=O)c12 (some centres unmarked) [Compound 22]
Reply: 100 to 500 nM

Task item: Answer briefly: IC50 recorded on UniProt:P48736 for C#Cc1cccc2nc([C@H](C)NC(=O)c3c(N)nn4cccnc34)n(C)c(=O)c12 [Compound 48]
Reply: 500 to 1000 nM

Task item: Answer briefly: IC50 recorded on UniProt:P48736 for C[C@H](NC(=O)c1c(N)nn2cccnc12)c1cc2cccc(C#C[C@@H](C)O)c2c(=O)n1-c1ccccc1 [Compound 15]
Reply: 1 to 100 nM

Task item: Answer briefly: IC50 recorded on UniProt:P48736 for C[C@H](NC(=O)c1c(N)nn2cccnc12)c1cc2cccc(C#CC(F)(F)F)c2c(=O)n1-c1ccccc1 [Compound 58]
Reply: 1000 to 5000 nM

Task item: Answer briefly: IC50 recorded on UniProt:P48736 for Cc1nnc(C#Cc2cccc3cc([C@H](C)NC(=O)c4c(N)nn5cccnc45)n(-c4ccccc4)c(=O)c23)s1 [Compound 86]
Reply: 100 to 500 nM

Task item: Answer briefly: IC50 recorded on UniProt:P48736 for COc1cnc(C(=O)N[C@@H](C)c2cc3cccc(C#Cc4cnn(C)c4)c3c(=O)n2-c2ccccc2)c(N)n1 [Compound 71]
Reply: > 5000 nM

Task item: Answer briefly: IC50 recorded on UniProt:P48736 for C[C@H](NC(=O)c1c(N)nn2cccnc12)c1cc2cccc(C#Cc3cnn(C)c3)c2c(=O)n1-c1ccc(F)cc1 [Compound 96]
Reply: 1 to 100 nM
